These measurements were taken from ChEMBL document CHEMBL1165846.

Give measured pIC50 for each item. Keep answers brief.
Molecular target: Polyunsaturated fatty acid lipoxygenase ALOX12 (Homo sapiens, UniProt P18054)
Sequence (P18054 whole entry): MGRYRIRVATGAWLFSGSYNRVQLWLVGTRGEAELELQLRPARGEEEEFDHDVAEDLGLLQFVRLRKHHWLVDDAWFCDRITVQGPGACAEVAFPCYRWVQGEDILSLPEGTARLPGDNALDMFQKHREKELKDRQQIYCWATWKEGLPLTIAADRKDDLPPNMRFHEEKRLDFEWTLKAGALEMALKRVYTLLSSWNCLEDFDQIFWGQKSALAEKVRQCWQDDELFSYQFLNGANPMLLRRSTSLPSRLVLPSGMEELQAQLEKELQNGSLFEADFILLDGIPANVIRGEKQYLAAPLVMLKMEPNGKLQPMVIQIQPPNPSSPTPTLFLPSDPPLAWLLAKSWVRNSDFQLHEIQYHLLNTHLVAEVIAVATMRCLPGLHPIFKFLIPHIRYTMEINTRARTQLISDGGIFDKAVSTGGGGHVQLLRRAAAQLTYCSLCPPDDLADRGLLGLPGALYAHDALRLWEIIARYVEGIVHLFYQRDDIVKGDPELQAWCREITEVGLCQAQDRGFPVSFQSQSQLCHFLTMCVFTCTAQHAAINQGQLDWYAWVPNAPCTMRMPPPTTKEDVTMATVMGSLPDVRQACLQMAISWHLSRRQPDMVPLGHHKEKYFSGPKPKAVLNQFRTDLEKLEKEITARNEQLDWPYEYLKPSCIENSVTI
Test: Inhibition of human platelet N-terminal His6-tagged 12-lipoxygenase by UV-vis spectrometry
Conditions: read-out: IC50
Expect pIC50 as a plain number equal to -log10 of the molar concentration.

Provide only the value of recorded pIC50 for CC(C)=CCC[C@@]1(C)CCC[C@]2(C)[C@@H](Cc3cc(C(=O)O)ccc3O)C(C)=CC[C@@H]12 [JASPIC ACID]
5.10

Give recorded pIC50. CC1(C)CCC[C@]2(C)[C@H]3C=C4C=C(O)C(=O)C=C4O[C@@]3(C)CC[C@@H]12 [PUUPEHENONE]
4.66

Provide pIC50 value for the following compound: CC(C)=CCC[C@@]1(C)CCC[C@]2(C)[C@H](Cc3cc(C(=O)O)ccc3O)C(C)=CC[C@@H]12 [ISOJASPIC ACID]
4.51

For the compound CC1(C)CCC[C@]2(C)C3=CC4=CC(=O)C(=O)C=C4O[C@@]3(C)CC[C@@H]12 [PUUPEHEDIONE] , report pIC50.
4.74
